Experiment: in vivo
Settings: male, SD, rat, in vivo, iv
The compounds listed here are annotated with their Vd.
Dear colleague, please send the value followed by its unit.

Record excerpt, results attached:
COC(=O)N[C@H](C(=O)N[C@@H](Cc1ccc(C#Cc2cnc(N3CC4CCC(C3)N4C3COC3)nc2)cc1)[C@@H](O)CN(Cc1c(F)cc(-c2ccn(C(F)F)n2)cc1F)NC(=O)[C@@H](NC(=O)OC)C(C)(C)C(F)(F)F)C(C)(C)C(F)(F)F ... 8.11 L/kg
COC(=O)N[C@H](C(=O)N[C@@H](Cc1ccc(C#Cc2ccc(N3CC4CCC(C3)N4C3COC3)nc2)cc1)[C@@H](O)CN(Cc1c(F)cc(-c2ccn(C3CC3)n2)cc1F)NC(=O)[C@@H](NC(=O)OC)C(C)(C)C(F)(F)F)C(C)(C)C(F)(F)F ... 3.32 L/kg
COC(=O)N[C@H](C(=O)N[C@@H](Cc1ccc(C#Cc2ccc(N3CC4CCC(C3)N4C3COC3)nc2)cc1)[C@@H](O)CN(Cc1ccc(-c2cnn(C(F)F)c2)cc1)NC(=O)[C@@H](NC(=O)OC)C(C)(C)C(F)(F)F)C(C)(C)C(F)(F)F ... 5.46 L/kg
COC(=O)N[C@H](C(=O)NN(Cc1c(F)cc(-c2ccn(C(F)F)n2)cc1F)C[C@H](O)[C@H](Cc1ccc(C#Cc2cnc(N3CC4CCC(C3)N4C3COC3)nc2)cc1)NC(=O)[C@@H](NC(=O)C1CC1)C(C)(C)C(F)(F)F)C(C)(C)C(F)(F)F ... 4.41 L/kg

Problem: Name the reported Vd value associated with the compound COC(=O)N[C@H](C(=O)N[C@@H](Cc1ccc(C#Cc2ccc(N3CC4CCC(C3)N4C3COC3)nc2)cc1)[C@@H](O)CN(Cc1c(F)cc(-c2ccn(C(F)F)n2)cc1F)NC(=O)[C@@H](NC(=O)OC)C(C)(C)C(F)(F)F)C(C)(C)C(F)(F)F
Solution: 6.68 L/kg

Problem: # input compound: COC(=O)N[C@H](C(=O)N[C@@H](Cc1ccc(C#Cc2ccc(N3CC4CCC(C3)N4C3COC3)nc2)cc1)[C@@H](O)CN(Cc1c(F)cc(-c2cc3n(n2)CCOC3)cc1F)NC(=O)[C@@H](NC(=O)OC)C(C)(C)C(F)(F)F)C(C)(C)C(F)(F)F ; wanted: its Vd
Solution: 2.45 L/kg

Problem: Requested read-out: Vd. Entry: COC(=O)N[C@H](C(=O)N[C@@H](Cc1ccc(C#Cc2ccc(N3CC4CCC(C3)N4C3COC3)nc2)cc1)[C@@H](O)CN(Cc1c(F)cc(-c2ccn(CC(F)F)n2)cc1F)NC(=O)[C@@H](NC(=O)OC)C(C)(C)C(F)(F)F)C(C)(C)C(F)(F)F
Solution: 4.22 L/kg

Problem: State the recorded Vd for this entry: COC(=O)N[C@H](C(=O)NN(Cc1c(F)cc(-c2ccn(C(F)F)n2)cc1F)C[C@H](O)[C@H](Cc1ccc(C#Cc2ccc(N3CC4CCC(C3)N4C3COC3)nc2)cc1)NC(=O)[C@@H](NC(=O)OC)C(C)(C)C(F)(F)F)C(C)(C)C
Solution: 3.34 L/kg

====

Assay: in vivo
Settings: male, SD, rat, in vivo, iv
Each entry below carries its recorded Vd.
# number only, unit L/kg dropped from output

COC(=O)N[C@H](C(=O)N[C@@H](Cc1ccc(C#Cc2ccc(N3CC4CCC(C3)N4C3COC3)nc2)cc1)[C@@H](O)CN(Cc1c(F)cc(-c2ncccn2)cc1F)NC(=O)[C@@H](NC(=O)OC)C(C)(C)C(F)(F)F)C(C)(C)C(F)(F)F [Example 101] ... 6.07
COC(=O)N[C@H](C(=O)N[C@@H](Cc1ccc(C#Cc2ccc(N3CC4CCC(C3)N4C3COC3)nc2)cc1)[C@@H](O)CN(Cc1c(F)cc(-c2ccccn2)cc1Cl)NC(=O)[C@@H](NC(=O)OC)C(C)(C)C(F)(F)F)C(C)(C)C(F)(F)F [Example 74] ... 5.07
COC(=O)N[C@H](C(=O)N[C@@H](Cc1ccc(C#Cc2ccc(N3CC4CCC(C3)N4C3COC3)nc2)cc1)[C@@H](O)CN(Cc1ccc(-c2ccccn2)cc1)NC(=O)[C@@H](NC(=O)OC)C(C)(C)C(F)(F)F)C(C)(C)C(F)(F)F [Example 56] ... 7.44

Continue with the molecule presented below.
Problem: Which Vd value belongs to COC(=O)N[C@H](C(=O)N[C@@H](Cc1ccc(C#Cc2cnc(N3CC4CCC(C3)N4C3COC3)nc2)cc1)[C@@H](O)CN(Cc1c(F)cc(-c2ncccn2)cc1F)NC(=O)[C@@H](NC(=O)OC)C(C)(C)C(F)(F)F)C(C)(C)C(F)(F)F [Example 89] ?
Solution: 3.53
